Entries with reported pKi on Prothrombin (Homo sapiens)
pKi is defined as minus the log10 of a concentration measured in mol/L.

According to the records, this compound N=C(N)c1ccc(O)c(CN2CC[C@H](NS(=O)(=O)c3cc4ncccc4s3)C2=O)c1 displays pKi of 5.40

According to the records, this compound N=C(N)c1ccc(O)c(CN2CC[C@H](NS(=O)(=O)c3cc4ccnc(Cl)c4s3)C2=O)c1 displays pKi of 5.59

According to the records, this compound N=C(N)c1ccc(O)c(CN2CC[C@H](NS(=O)(=O)c3cc4cnccc4s3)C2=O)c1 displays pKi of 5.59

According to the records, this compound N=C(N)c1ccc(N)c(CN2CC[C@H](NS(=O)(=O)c3cc4nc(Cl)ccc4s3)C2=O)c1 displays pKi of 5.96

---

target: Coagulation factor X (Homo sapiens); test: Binding affinity against serine protease Coagulation factor X
For each entry below, report its Ki value.
# number only, unit nM dropped from output

According to the records, this compound N=C(N)c1cccc(CN2CC[C@H](NS(=O)(=O)c3ccc4c(N)nccc4c3)C2=O)c1 displays Ki of 90

According to the records, this compound N=C(N)c1cccc(CN2CC[C@H](NS(=O)(=O)c3ccc4cccnc4c3)C2=O)c1 displays Ki of 420

According to the records, this compound N=C(N)c1cccc(CN2CC[C@H](NS(=O)(=O)c3ccc4ccc(Cl)nc4c3)C2=O)c1 displays Ki of 720

---

biological target: Coagulation factor X (Homo sapiens, UniProt P00742); test: Binding affinity against serine protease factor Xa (fXa)
Sequence (P00742 41-179 limits assumed): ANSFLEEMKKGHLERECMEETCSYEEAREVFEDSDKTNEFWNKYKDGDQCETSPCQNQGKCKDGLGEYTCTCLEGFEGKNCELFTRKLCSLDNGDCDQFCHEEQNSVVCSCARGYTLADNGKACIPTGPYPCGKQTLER
Sequence (P00742 235-488 limits assumed): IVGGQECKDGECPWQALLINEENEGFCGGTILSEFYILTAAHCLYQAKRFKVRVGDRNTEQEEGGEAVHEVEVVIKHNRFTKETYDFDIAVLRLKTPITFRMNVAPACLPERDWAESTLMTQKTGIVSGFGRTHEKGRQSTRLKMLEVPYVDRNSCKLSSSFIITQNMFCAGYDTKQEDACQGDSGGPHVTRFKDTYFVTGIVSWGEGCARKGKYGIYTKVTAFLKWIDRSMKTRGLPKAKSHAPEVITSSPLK
We label by threshold. Values of Ki strictly beneath 0.005 µM are Yes. Values of 0.005 µM and up are No.

Request: Dear reviewer, please state whether N=C(N)c1cccc(CN2CC[C@H](NS(=O)(=O)c3ccc4nc(N)ccc4c3)C2=O)c1 has Ki strictly beneath 0.005 µM.
Response: No

Request: Dear reviewer, please state whether N=C(N)c1ccc(O)c(CN2CC[C@H](NS(=O)(=O)c3cc4ncccc4s3)C2=O)c1 has Ki strictly beneath 0.005 µM.
Response: Yes

Request: Dear reviewer, please state whether N=C(N)c1cccc(CN2CC[C@H](NS(=O)(=O)c3cc4c(Cl)nccc4s3)C2=O)c1 has Ki strictly beneath 0.005 µM.
Response: No

Request: Dear reviewer, please state whether N=C(N)c1cccc(CN2CC[C@H](NS(=O)(=O)c3ccc4ncccc4c3)C2=O)c1 has Ki strictly beneath 0.005 µM.
Response: No

Request: Dear reviewer, please state whether N=C(N)c1ccc(O)c(CN2CC[C@H](NS(=O)(=O)c3cc4c(Cl)nccc4s3)C2=O)c1 has Ki strictly beneath 0.005 µM.
Response: Yes

---

target: Coagulation factor X (Homo sapiens); assay: Binding affinity against serine protease Coagulation factor X
For each entry below, report its pKi value.
pKi is defined as minus the log10 of a concentration measured in mol/L.

According to the records, this molecule Cc1c(S(=O)(=O)N[C@H]2CCN(Cc3cccc(C(=N)N)c3)C2=O)sc2ccc(Cl)cc12 displays pKi of 7.44

According to the records, this molecule N=C(N)c1cccc(CN2CC[C@H](NS(=O)(=O)c3cc4ccc(Cl)nc4s3)C2=O)c1 displays pKi of 6.92

According to the records, this molecule N=C(N)c1cccc(CN2CC[C@H](NS(=O)(=O)c3ccc4ccnc(N)c4c3)C2=O)c1 displays pKi of 6.31

According to the records, this molecule N=C(N)c1cccc(CN2CC[C@H](NS(=O)(=O)c3ccc4ccncc4c3)C2=O)c1 displays pKi of 6.29

According to the records, this molecule N=C(N)c1cccc(CN2CC[C@H](NS(=O)(=O)c3ccc4ccc(N)nc4c3)C2=O)c1 displays pKi of 6.62

According to the records, this molecule N=C(N)c1cccc(CN2CC[C@H](NS(=O)(=O)c3ccc4cnccc4c3)C2=O)c1 displays pKi of 6.42

According to the records, this molecule N=C(N)c1ccc(O)c(CN2CC[C@H](NS(=O)(=O)c3cc4ccncc4s3)C2=O)c1 displays pKi of 8.70

According to the records, this molecule COc1ccc2ccc(S(=O)(=O)N[C@H]3CCN(Cc4cccc(C(=N)N)c4)C3=O)cc2n1 displays pKi of 6.32

From: ChEMBL document CHEMBL1131988
